Target: mouse ZO-1 (mZO1-PDZ1) (Mus musculus, UniProt P39447)
Construct: gene Tjp1
Assay: 1H-15N SOFAST-HMQC NMR titration
Format: binding
readout: pKd
// field semantics: pKd = negative decimal log of concentration (mol/L)

Asked: Endpoint output: pKd of O=C(O)c1ccccc1Nc1cccc(C(F)(F)F)c1 [FLF] . Value?
Given back: 3.12

###

Target: mouse ZO-1 (mZO1-PDZ1) (Mus musculus)
Construct: gene Tjp1
Sequence (P39447 18-110): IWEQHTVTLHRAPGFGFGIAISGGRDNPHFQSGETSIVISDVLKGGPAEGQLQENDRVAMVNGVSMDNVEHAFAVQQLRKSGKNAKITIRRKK
Test: 1H-15N SOFAST-HMQC NMR titration; V92E-R96Q mutant abolishes binding
readout: Kd (mM)
Your answer is read as mM, so omit the unit and give the number.

Asked: Endpoint output: Kd of O=C(O)Cc1ccccc1Nc1c(Cl)cccc1Cl [DIF] . Value?
Given back: 1.4
